System: MOLM-13
experimentalDetails: cell viability (% survival relative to DMSO control, bortezomib = 0%); higher = less cytotoxic
conditionParameters: 10 nM; 72 h
measuredParameter: cell viability (%)

compound="NS(=O)(=O)c1ccc([N+](=O)[O-])cc1 [4-Nitrobenzenesulfonamide]" reported=92.3
compound="CCCCCCCCCCCC(=O)c1c(O)c(C(=O)CCCCCCCCCCC)c(O)c(C2CC(c3ccc(O)cc3)Oc3cc(O)ccc32)c1O (stereo not drawn)" reported=119
compound=O=C1c2cc([N+](=O)[O-])ccc2-n2c1nc1ccccc1c2=O reported=122
compound=COc1ccc(S(=O)(=O)N2CCN(S(=O)(=O)c3ccc4c(c3)OCCO4)CC2)cc1 reported=81.7
compound=Nc1ccccc1C(=O)C[C@H](N)C(=O)O reported=93.2
compound=O[C@H]1[C@H]2[C@H](O)CCCN2C[C@H]1O reported=94.2
compound="Cl.NC(CCC(=O)Nc1ccc([N+](=O)[O-])cc1)C(=O)O (stereo not drawn)" reported=99.6
compound=O=C(O)c1cc(Cl)cc(Cl)c1O reported=112
compound=O=C(O)C(=O)CBr reported=97.4
compound=CC[C@@]1(O)C(=O)OCc2c1cc1n(c2=O)Cc2cc3c(CN(C)C)c(O)ccc3nc2-1 reported=70.9
compound=CCCCN1C[C@H](O)[C@@H](O)[C@H](O)[C@H]1CO reported=102
compound=O=C(O)c1cc(N=Nc2ccc(S(=O)(=O)Nc3ccccn3)cc2)ccc1O reported=102
compound="O=C1O/C(=C/Br)CCC1c1cccc2ccccc12 (stereo not drawn)" reported=94

###

System: LAMA-84
experimentalDetails: cell viability (% survival relative to DMSO control, bortezomib = 0%); higher = less cytotoxic
conditionParameters: 1000 nM; 72 h
cell viability listing for selected molecules.
measuredParameter: cell viability (%)

molecule="CC[C@@]1(O)C(=O)OCc2c1cc1n(c2=O)Cc2cc3c(CN(C)C)c(O)ccc3nc2-1 [Topotecan]" assayedsystem=LAMA-84 measuredparameter="cell viability" reported=1.78
molecule="CCCCN1C[C@H](O)[C@@H](O)[C@H](O)[C@H]1CO [Miglustat]" assayedsystem=LAMA-84 measuredparameter="cell viability" reported=103
molecule="N#CC(C#N)=NNc1ccc(OC(F)(F)F)cc1 [FCCP]" assayedsystem=LAMA-84 measuredparameter="cell viability" reported=79.1

###

cell viability listing for selected compounds.
Test system: HL-60
experimentalDetails: cell viability (% survival relative to DMSO control); higher = less cytotoxic
conditionParameters: 1 µM; 72 h; co-treatment: DMSO vehicle
measuredParameter: cell viability (%)

compound="Cc1cn([C@H]2C[C@H](O)[C@@H](COP(=O)(O)OP(=O)(O)O)O2)c(=O)[nH]c1=O [Thymidine diphosphate]" assayedsystem=HL-60 measuredparameter="cell viability" unit=% reported=101
compound=CC1(C)[C@@H](O[C@H]2O[C@H](C(=O)O)[C@@H](O)[C@H](O)[C@H]2O[C@@H]2O[C@H](C(=O)O)[C@@H](O)[C@H](O)[C@H]2O)CC[C@]2(C)[C@H]3C(=O)C=C4[C@@H]5C[C@@](C)(C(=O)O)CC[C@]5(C)CC[C@@]4(C)[C@]3(C)CC[C@@H]12 assayedsystem=HL-60 measuredparameter="cell viability" unit=% reported=98.7
compound=O=c1oc2c(O)c(O)cc3c(=O)oc4c(O)c(O)cc1c4c23 assayedsystem=HL-60 measuredparameter="cell viability" unit=% reported=102
